test system: Zea mays; assay: Pre-emergence herbicidal activity (glasshouse); format: in vivo; settings: application pre-emergence, 1000 g/Ha, evaluated after 13 days, scale 0-5
Assignment: determine reported damage to plant score, ZEAMX for the given compounds.
Numbers only.

Count: 2. Required value per item: damage to plant score, ZEAMX.
1. CCOC1C(O)N(c2cc(C(F)(F)F)ccn2)C(=O)N1C (stereo not drawn)
2. CON1C(=O)N(c2cc(C(F)(F)F)ccn2)C(O)C1C (stereo not drawn)

OUTPUT:
[3, 2]

Count: 4. Required value per item: damage to plant score, ZEAMX.
1. CC1C(O)N(c2cc(C(F)(F)F)ccn2)C(=O)N1C (stereo not drawn)
2. CC1C(O)N(c2cc(C(F)(F)F)n(C)n2)C(=O)N1C (stereo not drawn)
3. CN1CC(O)N(c2cc(C(F)(F)F)ccn2)C1=O (stereo not drawn)
4. CCO[C@@H]1C(O)N(c2cc(C(C)(C)C)on2)C(=O)N1C (single isomer, unassigned)

OUTPUT:
1: 3; 2: 4; 3: 3; 4: 2

The reported measurements were obtained from patent US20180092358A1.
